Hey, just so you know, these numbers are from patent US9527856B2.

molecular target: human vasopressin V1b receptor (Homo sapiens, UniProt P47901); assay: biochemical; conditions: Ki(h-V1b)* [nM], CHO-K1 cell membranes, displacement of 3H-AVP
Sequence (P47901 whole entry): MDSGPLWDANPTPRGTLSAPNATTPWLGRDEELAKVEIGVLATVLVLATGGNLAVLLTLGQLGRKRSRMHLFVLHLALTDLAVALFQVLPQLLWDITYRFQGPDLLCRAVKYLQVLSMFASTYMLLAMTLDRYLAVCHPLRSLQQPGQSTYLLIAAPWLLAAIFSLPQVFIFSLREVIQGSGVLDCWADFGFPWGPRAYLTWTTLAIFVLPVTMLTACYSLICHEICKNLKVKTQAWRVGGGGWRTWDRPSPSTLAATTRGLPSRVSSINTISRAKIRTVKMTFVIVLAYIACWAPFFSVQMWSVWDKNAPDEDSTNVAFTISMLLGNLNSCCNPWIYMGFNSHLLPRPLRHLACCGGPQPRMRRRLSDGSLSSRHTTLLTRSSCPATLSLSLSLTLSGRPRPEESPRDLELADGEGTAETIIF
Value Kind: Ki

Worked examples, 4 molecules total:
CCOc1ccccc1[C@]1(NC(=O)N2CC3(C2)CN(C2CCN(C(C)C)CC2)C3)C(=O)N(S(=O)(=O)c2ccc(F)cc2)c2ccc(C#N)cc21.O=C(O)C(F)(F)F [Example 43B] | 10 to 100 nM
CCOc1ncccc1C1(NC(=O)N2CC3(CCN(C)CC3)C2)C(=O)N(S(=O)(=O)c2ccc(OC)cc2OC)c2ccc(C#N)cc21 (stereo not shown) [Example 55, 2,2,2-trifluoroacetate] | 10 to 100 nM
CCOc1ncccc1C1(NC(=O)N2CC3(C2)CN(C2CCNCC2)C3)C(=O)N(S(=O)(=O)c2ccc(OC)cc2OC)c2ccc(C#N)cc21.O=C(O)C(F)(F)F (stereo not shown) [Example 59, 2,2,2-trifluoroacetate] | 10 to 100 nM
CCOc1ncccc1[C@]1(NC(=O)N2CC3(CN(CCN4CCOCC4)C3)C2)C(=O)N(S(=O)(=O)c2ccc(OC)cc2F)c2ccc(C#N)cc21.O=C(O)C(F)(F)F | 1 to 10 nM

Task: For CCOc1ncccc1C1(CC(=O)N2CC3(CN(CCN4CCOCC4)C3)C2)C(=O)N(S(=O)(=O)c2ccc(OC)cc2)c2ccc(C#N)cc21 (racemic) [Example 20] , what is its reported Ki?
Result: 1 to 10 nM

Task: For CCOc1ncccc1C1(NC(=O)N2CCC3(CC2)CNC3)C(=O)N(S(=O)(=O)c2ccc(OC)cc2OC)c2ccc(C#N)cc21 (stereo not shown) [Example 51, 2,2,2-trifluoroacetate] , what is its reported Ki?
Result: 10 to 100 nM

Task: For CCOc1ncccc1C1(NC(=O)N2CC3(C2)CN(C2CCN(C(C)C)CC2)C3)C(=O)N(S(=O)(=O)c2ccc(OC)cc2OC)c2ccc(C#N)cc21 (racemic) , what is its reported Ki?
Result: 1 to 10 nM

Task: For CCOc1ncccc1C1(CC(=O)N2CC3(CN(CCN4CCOCC4)C3)C2)C(=O)N(S(=O)(=O)c2ccc(OC)cc2)c2ccc(C#N)cc21 (single isomer, unassigned) [Example 20A] , what is its reported Ki?
Result: 1 to 10 nM

---

biological target: UniProt P47901; experiment: biochemical; settings: Ki(h-V1b)* [nM], CHO-K1 cell membranes, displacement of 3H-AVP
Let's look at some compounds and their measured Ki.

CCOc1ncccc1[C@]1(NC(=O)N2CC3(CN(CCN4CCOCC4)C3)C2)C(=O)N(S(=O)(=O)c2ccc(C)cc2)c2ccc(C#N)cc21.O=C(O)C(F)(F)F | 1 to 10 nM
CCOc1ncccc1[C@]1(NC(=O)C2CC3(C2)CN(C2CCN(C(C)C)CC2)C3)C(=O)N(S(=O)(=O)c2ccc(OC)cc2)c2ccc(C#N)cc21 | 10 to 100 nM
CCOc1ncccc1[C@]1(NC(=O)N2CC3(CN(CCN4CCOCC4)C3)C2)C(=O)N(S(=O)(=O)c2ccc(F)cc2)c2ccc(C#N)cc21 | 10 to 100 nM

Task: For CCOc1ncccc1C1(NC(=O)C2CCC3(CC2)CCN(C2CCNCC2)CC3)C(=O)N(S(=O)(=O)c2ccc(OC)cc2OC)c2ccc(C#N)cc21 (centres unmarked) [Example 47, 2,2,2-trifluoroacetate] , what is its reported Ki?
Result: 1 to 10 nM

Task: For CCOc1ncccc1[C@]1(NC(=O)N2CC3(CN(CCN4CCOCC4)C3)C2)C(=O)N(S(=O)(=O)c2ccc(OC)cc2)c2cc(F)c(C#N)cc21 , what is its reported Ki?
Result: 1 to 10 nM

Task: For CCOc1ncccc1[C@]1(NC(=O)N2CC3(C2)CN(C2CCN(C(C)C)CC2)C3)C(=O)N(S(=O)(=O)c2ccc(F)cc2)c2ccc(C#N)cc21 , what is its reported Ki?
Result: 10 to 100 nM

Task: For CCOc1ccccc1[C@]1(NC(=O)N2CC3(C2)CN(C2CCN(C(C)C)CC2)C3)C(=O)N(S(=O)(=O)c2ccc(C)cc2)c2ccc(C#N)cc21 , what is its reported Ki?
Result: 10 to 100 nM

Task: For CCOc1ncccc1[C@]1(NC(=O)N2CC3(CN(CCN4CCCCC4)C3)C2)C(=O)N(S(=O)(=O)c2ccc(OC)cc2)c2ccc(C#N)cc21 , what is its reported Ki?
Result: < 1 nM
